Test system: MS2 coat protein
assay.remarks: apparent KD of MS2 coat protein; designed switch direction (-1 OFF switch, 1 ON switch): -1; higher = weaker reporter binding
settings: input ligand: FMN 200 uM
Recorded apparent KD of MS2 coat protein for the following sequences
// units = nM; emit number, no label

Consider the reported apparent KD of MS2 coat protein for these sequences:
{"columns": ["construct.sequence", "apparent KD of MS2 coat protein / nM"],
 "data": [
  ["AUAAUGUGAGGAUAUCAGUCGACUAGCCUCGGCUAGUCGACUGAGAAGGCACAUGAGGAUCACCCAUGUGUUUC [E4/15-A2] (Eterna round: R97, puzzle: Exclusion 4)", 43.9],
  ["UUAAUUAAUAAUUAAGAUCAUUACAUGAGGAUCACCCAUGUCGAGGAUAUCAGCUCGAUUAGAGCUGAGAAGGCGACAAAUUAU [ExNG3/13-B1] (Eterna round: R96, puzzle: Exclusion NG 3)", 1060],
  ["AAGAAACAUGAGGAUCACCCAUGUGAGGAUAUGGCCCGCCCGGCGUGAGCUGGAUAAAUCAGAAGGCACAAAGG [salish99_ex1_r4_012] (Eterna round: R97, puzzle: Exclusion 1)", 57.2],
  ["GCUAGAGCAGGAUAUCUAAAUCCUCACAUGAGGAUCACCCAUGUAGUCGAAAGACUAAGAAGAGAAGGGCUCUAGC [Omei Ex5 E19] (Eterna round: R97, puzzle: Exclusion 5)", 543]
]}

Now, please, on to the next sequence.
Ask: Can you look up the measured apparent KD of MS2 coat protein of GUAACAUGCUGGUGAUCAUACAUGAGGAUCACCCAUGUAACAAGCUUUUUGUUCGUCUUAUAAGAUCACCAGCAUGU [Stov1/9-B2] (Eterna round: R97, puzzle: Sensor, turn-off variant 1) for me?
Result: 18.4
